study_target: T1, GHRH receptor of human pituitary membranes (human, UniProt Q02643)
T1 sequence: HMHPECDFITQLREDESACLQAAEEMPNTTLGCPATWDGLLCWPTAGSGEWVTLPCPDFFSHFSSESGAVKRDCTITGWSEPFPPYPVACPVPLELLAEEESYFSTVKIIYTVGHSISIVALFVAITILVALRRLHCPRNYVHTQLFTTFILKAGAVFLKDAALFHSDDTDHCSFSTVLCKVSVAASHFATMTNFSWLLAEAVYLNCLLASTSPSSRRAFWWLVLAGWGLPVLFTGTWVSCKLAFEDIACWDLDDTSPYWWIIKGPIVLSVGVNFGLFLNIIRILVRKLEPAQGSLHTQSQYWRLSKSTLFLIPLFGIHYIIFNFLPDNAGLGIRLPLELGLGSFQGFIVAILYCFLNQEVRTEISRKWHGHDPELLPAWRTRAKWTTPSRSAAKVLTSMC
assay_protocol: competition vs 125I-JV-1-42, human pituitary membranes;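 also: pituitaries used were normal human glands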
Non-standard residues stand in square brackets, D forms with d. No end group written: not given here. *: point of attachment. Phe(F5) = N[C@@H](Cc1c(F)c(F)c(F)c(F)c1F)C(=O)O; NMeY = CN[C@@H](Cc1ccc(O)cc1)C(=O)O; Agmatine = N=C(N)NCCCCN*; Nle = CCCC[C@H](N)C(=O)O; Orn = NCCC[C@H](N)C(=O)O; Abu = CC[C@H](N)C(=O)O
measured_metric: relative affinity (binding potency) vs JI-38 (vs JI-38=1)
Quick reminder: number only, in vs JI-38=1, skip the unit.

{"columns": ["binder", "unit_tag", "numeric_readout"],
 "data": [
  ["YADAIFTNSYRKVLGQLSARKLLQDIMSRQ (N-Me-Tyr^1; Abu^2; Orn^12; Abu^15; Orn^21; Nle^27; Gab^30 (in place of Gln^30); C-terminal -NH2) [P-25503 [N-Me-Tyr^1, Abu^2, Orn^12, Abu^15, Orn^21, Nle^27, Gab^30]hGHRH(1-30)NH2]", "vs JI-38=1", 3.67],
  ["[NMeY][dA]DAI[Phe(F5)]TNSYR[Orn]VL[Abu]QLSAR[Orn]LLQDI[Nle]D[Agmatine] [P-20359 [N-Me-Tyr^1, D-Ala^2, Fpa5^6, Orn^12, Abu^15, Orn^21, Nle^27, Asp^28, Agm^29]hGHRH(1-29)NH2]", "vs JI-38=1", 1.43],
  ["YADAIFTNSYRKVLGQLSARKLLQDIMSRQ (N-Me-Tyr^1; D-Ala^2; Orn^12; Abu^15; Orn^21; Nle^27; Gab^30 (in place of Gln^30); C-terminal -NH2) [P-25501 [N-Me-Tyr^1, D-Ala^2, Orn^12, Abu^15, Orn^21, Nle^27, Gab^30]hGHRH(1-30)NH2]", "vs JI-38=1", 4.07]
]}

Now examine the next entry.
// field: relative affinity (binding potency) vs JI-38; key: [NMeY][dA]DAIFTQSYR[Orn]VL[Abu]QLSAR[Orn]LLQDI[Nle]DR-NHEt [P-28420 [N-Me-Tyr^1, D-Ala^2, Gln^8, Orn^12, Abu^15, Orn^21, Nle^27, Asp^28]hGHRH(1-29)NH-CH2-CH3] ; value = 8.37
